The origin of these recorded values is the supplement of paper PMC12764529.

Experiment: folding stability dG unfold from trypsin proteolysis; higher = more stable

# SEQUENCE, folding stability dG unfold, kcal/mol
data = [
    ("SAGGIKPDEPAIVLVKIPLPPGPNPEGGLEGPVLKTFPLEVGFPSLEELIEAVKELFPEGTEVEIIPSAGGS [r16_282_TrMRF]", 1.06),
    ("SAGGKVTLIEVEFEGGNPTISLTVTNADGSVEAVFVSPSPTDVLYATATLTVGGHPVVVVARASKDESAGGS [r16_672_TrMRF]", 1.3),
    ("SAGGMPPGSFRVRARRPVPLFVRVRLPNDPDVTVTFPVTVPAELELPVNSPEALEALREAGFEIEPASAGGS [r8_482_TrMRF]", 0.608),
    ("SAEPKRYYALVVKRPDGKWLVFYFEDVEEGRERFEEFLRKEFPEDFEVELFEVEPSEAESIEKLLEALGSAG [r14_900_TrMRF]", 3.07),
    ("SAPPDDWKPVTIPILIPFDSVEDAKEWVIELANELAKKHGWRINIDVDIEPVPNRYYIKIPITIYVPKKSAG [r14_626_TrROS]", 2.39),
    ("MKVEIVEVEYDEETKRVRVKLKVDGKLVEIEFDLESGKVTVRIYEDGEEIEIEAESVEDALEKAKELVKEKS [r1_177_TrROS_Hall]", 2.02),
    ("SAGGAEELAKRLAEELREAGYEVEVVKVERLENGEVVITMKVRVVKDGKEVEEREIKLVLKLPEELLSAGGS [r8_102_TrROS_Hall]", 3.93),
    ("SAGGSAGGVERIKKLLEELGAEVVKVEKLENGKTLIYIKVKSEEQREALKALLPEEDIEIIEPESAGGSAGG [r6_83_TrROS_Hall]", 4.69),
    ("SAGGSAGGSAGGMIAVLTYKDGTVRDFGPTASLEEILSIPADEIVRIEVRPVLPELGDLLSAGGSAGGSAGG [r7_190_TrMRF]", 0.59),
    ("SAGGSAGGSNKKKKTIMFTIKLDVPEGTPTAEEIADELKELSPNVEIDNIMFTPNEVYIMIKVSAGGSAGGS [r12_454_TrROS]", 1.16),
    ("SEFPESVPVDWVERELTFSSSSKEELEKKIKELLKNIEIEVSYDPKTNKYTLKIKFPSKEKAEKVEELLSSA [r9_764_JUSTAS]", 2.22),
    ("SAGGPRVEVEEVELEGDYLVVRARVEVPLDDGTYEFELTLVLPVPPPPLPLPPVDPRFPRAPDDDLVSAGGS [r8_234_TrMRF]", 0.584),
    ("SAGGMTLEELKAKITKVEVEEREDGSLKLRLTIKVKNEDGSEEEIELTITLPEEEKNMSLEELLEKLLSAGG [r13_319_TrROS_Hall]", 4.26),
    ("SAGGSAGGSAGGAPEKEVTVRVRITVFRDGKPVEEIELEPGQTLTFPPGARVVIEVELLPSAGGSAGGSAGG [r7_141_TrROS_Hall]", 3),
    ("SAGGSAGGSAGRMLVIEIEMPGRKRTFMIPTPDGPPIKAEELADKLGFDNVTVKIHPIDDSAGGSAGGSAGG [r11_219_TrROS]", -0.12),
    ("SAYKITIKITITDPVTGETTTITVELISSEEEAKKEAEKLAASYPGKKVTIDLVEVVPVPPLSEEELKLSSA [r9_421_JUSTAS]", 1.91),
    ("SAGGSAGGSAGGMITVEVEVPGDEAEAEARREAIAEELAAEGHEDVPITVTFVSPEEAASAGGSAGGSAGGS [r10_1099_JUSTAS]", 1.28),
    ("GEERTFSLWVKTKSPQEARQLQEKIKDILRGPGYEVKIDDVEVSPNGWMKVNITMRPGMPQDRLRDALRKIS [r1_485_TrROS]", 3.93),
    ("SAGGSAGGSAGGSIEIIVRTPEMAKQMAKRIQKILADQGNPPPLKIEIHVIPPDDLPPWSAGGSAGGSAGGS [r4_472_TrROS]", -0.0989),
    ("SAGGMHLVIPFDSPEEALEAAKELKKEFEEKGYTVKVYYFPETGDIHVLVEMKTDGKTKYLNVTVPFPSAGG [r13_641_TrMRF]", 0.83),
    ("SAGGSAGGSAGKKITIELPEGVKVYKLPNENDYIIVEDEKTKEKYIFKIKDGKVELIEKLSAGGSAGGSAGG [r11_1036_TrROS_Hall]", 1.01),
    ("SAGGSAGGSALPLPPDQRLYVFRDPEGDLYLVRFEDGSEVRTSLKAEDLEKLGVPVVDIGDLSAGGSAGGSA [r18_125_TrMRF]", 1.73),
    ("SAGGTLRNMPVEQIAKRLQNHGYEIKVENIRHNEDRVRIKIEVERRNKNGKPHEEVKISIEIPDPDDFSAGG [r13_566_TrROS]", 0.461),
    ("SAGGMKVRIRIEVDGKTLELELEVEPGETVKITLEVNGEEVTITFDAATGEITIELPPGAKIVEIEPSAGGS [r16_761_TrROS_Hall]", 3.56),
    ("SAGGSEVETVKVKIKVKIDGKVYEVEAEVEVFTDEDGRKVLRITLPDGRVVEIPLEDADKIEEIEVSAGGSA [r2_297_TrROS_Hall]", 4.7),
    ("SAGSALAAALKLKTYTIKITAPDGTVIELTISYHPSDPEAIKEALAKAGYPPEKLKTENPNLETTEVDASAG [r5_430_JUSTAS]", 1.62),
    ("SMKPGETVTLEVVIRVKKENMTLEEIAEEVANAIKALLPPGAKITIEVVDIEYDEETDEVYVKLKITIENSA [r9_706_TrROS_Hall]", 4.17),
]

---

Below, each of the sequences is paired with its reported folding stability dG unfold value.
Test: folding stability dG unfold (combined trypsin and chymotrypsin); higher = more stable

# SEQUENCE, folding stability dG unfold
measured = [
    ("SAGGSAGGSAPTLELTVTLPDGLRVTVRYDLETDEVTIEVRPLPAPPPPELSEEERKKLAEESAGGSAGGSA [r18_236_TrROS_Hall]", "1.98 kcal/mol"),
    ("SAGGSAGGSAGPKILSIEEYDPENGYITVIAELTGKPVRMKVKFIPGKKEIKIIEIEPLDSAGGSAGGSAGG [r11_1066_TrMRF]", "2.36 kcal/mol"),
    ("SAGGSLELPEGAKVEVEVEIEEVDDDTVKIKVKVKFTFINEDGEPETFEAEFEFEIPKEEAEELLGSAGGSA [r2_226_TrMRF]", "3.32 kcal/mol"),
    ("SITISPDKVYTLKNVRVGDYEVDGLVAVAGPDGTVYVPADVRPVVVPPPAPPVGLDPVDGGVYDITDPSVSA [r9_603_TrMRF]", "< -1 kcal/mol"),
    ("STRTVPIPIRWDNGRLSPDDIRNAIKKALPPGENVKITEETIQNFWQEWAGKNGKPMTPEDFPIRIEVKKSA [r9_197_TrROS]", "-0.198 kcal/mol"),
    ("SAGGSAGGSIAPDEPLVLEVEVEEVVPGVGEVLLPEWIAEEFPDAVIEVETDGTPVKVTIYRPSAGGSAGGS [r12_900_TrMRF]", "0.0203 kcal/mol"),
    ("SAGGSAMFKSPSDKYFEPIAVIDLEKASPETLKALLEENPGKLLVIPKSTGKPRLIPAEELLELLGSAGGSA [r15_904_TrMRF]", "0.0646 kcal/mol"),
]

---

Assay: folding stability dG unfold from trypsin proteolysis; higher = more stable
Categories are defined by ranges of folding stability dG unfold, namely low bracket (below -0.2 kcal/mol), middle bracket (-0.2 kcal/mol to below 1 kcal/mol), high bracket (1 kcal/mol or more)

# SEQUENCE, LABEL_CLASS
records = [
    ("SAGGSAGGSAMIVTEEGNTITITTLTNLTFPTTGATSTATTTTTITLPPTPLFPVPRTDNSLSAGGSAGGSA [r18_501_JUSTAS]", "low bracket"),
    ("SAGGKVYEFEIEVELLDPETGKPKKIKLKVPVFVDPKTGKVTKKVEAEPEPNVPKEEAEKIAKEIIEAESAG [r14_152_TrMRF]", "middle bracket"),
    ("SAGGSAGGSAPTSSVVTFPYESPEEARERARELAEEERARRGVRFRVEYDPATGTVTLTAVESAGGSAGGSA [r18_368_JUSTAS]", "middle bracket"),
    ("SAGGSAGGSAMTFKSPEEAKKAAEELEKKTGYKIKITKIEVNEDGEKTVKIEILPPGEKLKSAGGSAGGSAG [r3_59_TrROS_Hall]", "low bracket"),
    ("SAGGSAGGSAGGPGWRTIEFWIPVDDFLDEIKLPPGITPIRIIKPNPNGYVRIMIIYPYSAGGSAGGSAGGS [r10_352_TrROS]", "high bracket"),
    ("SAGGMKTAVLTLEVPGLPKRLVLIAGESEEEYKKLAAEAEKPGYEFLGYTTLEELVERTGLPASLLLSAGGS [r16_438_JUSTAS]", "middle bracket"),
    ("SAGKIEIEVNEDGYKVRIKVEIEGKTYEFEIKVEGLSVEEIVKKALEELKKLFPNKKIKVEVEILPKKESAG [r5_180_TrROS_Hall]", "high bracket"),
    ("SAGGSAGGSAGMTYRVRIENADGEVVTIEISADELREKGLTLEELLPPNARIVEVEEVEPSAGGSAGGSAGG [r11_829_TrROS_Hall]", "high bracket"),
    ("SAGGSAGGSAGGKTIVVELEDGSKATITVDEDGNVTVEVYDEKTGEKKTFTIPAEALKPSAGGSAGGSAGGS [r10_838_TrROS_Hall]", "high bracket"),
    ("SAGGNPDGKPDGGVSFVVNVAKTKPYIDPSTGKVYPVVEVKPVVIEVKKDEKLDLSELLKNTDYISVSSAGG [r13_753_TrMRF]", "low bracket"),
    ("SAGGSAGGMVVRVTLPDGTVVTFEFESEEEFRKEFAASLGLAPDEIPEERIVSVERLSPEEYRSSAGGSAGG [r6_588_JUSTAS]", "high bracket"),
    ("GSLVTVFPFPENGKTVEVVVPESVGTPLSEAEIRALLLEAHPDVPAAALPAEEAAEILQATPGVEAARVVAS [r1_463_JUSTAS]", "low bracket"),
    ("SAGGSAGGSAGGSMKNVPVTVEGSSSVVPLPDGSPVTVTELTTTTLGENGEVSTSTTVVSSAGGSAGGSAGG [r11_817_JUSTAS]", "low bracket"),
    ("SAGGSAGGSIEIFKSPEGWYVRIWFPGKPQVIPIDDAEDLKNFEIPIPNGRPIKVEILPPKDLSAGGSAGGS [r12_730_TrROS]", "high bracket"),
    ("SAGGSAGGSAGKKIKVKIEVVYTDEDGNKHKVEMEKEIELKPGDKITLPPEAITRVEILPSAGGSAGGSAGG [r11_664_TrROS_Hall]", "middle bracket"),
    ("SAGGSAGGMTAVEVKEETVPITLTSSFFPGGVPVPGAAVSTITITTTTTIEPPTGKTVKVTVAGSAGGSAGG [r6_424_JUSTAS]", "low bracket"),
    ("SAGGSTTVTIETYESEKFPNGSFKTSTKKIVITNTLSPDEELTLPNGKKIPASLSAEEIAEAILKSESAGGS [r16_440_JUSTAS]", "low bracket"),
    ("SAGGSAMRMERIKLPDGKDITIMRHPNEPRQYQLFFPGGRSISVNFPSPEEAIDHALEWIKNGKPFSAGGSA [r15_38_TrROS]", "middle bracket"),
    ("SAGGNIKIQVENHEDGWYMKIWVPGNGKEQEYPFEPGDTIDTLPPGAEPVKIEWFHMNDNPQEFELDSAGGS [r8_487_TrROS]", "middle bracket"),
    ("SAGGSAGGSAGGSMIVERKPAPGGPRVEITIEIPDPTSDVPIIKKLVAEVLEDGSIVKASAGGSAGGSAGGS [r4_448_JUSTAS]", "middle bracket"),
    ("SKKVVFVTYPKTSVKEIVEKLKENPNTEFVFLMPSSVGPEFYEKLKKALKEANIPKEQKVLFLPVEENSLSA [r9_670_TrMRF]", "high bracket"),
    ("SAGGSAGGSAGGKPVIYRIEVRLPDSPEREIFEIEVPPDRPEVAEELAKLLGPNVKMEPLSAGGSAGGSAGG [r11_250_TrMRF]", "middle bracket"),
    ("SAGGSAGGSAGGMYYAIITNKNGKKKIIKFKSLEEMEEAAKKNNIKIEIIPKEELEKLLSAGGSAGGSAGGS [r10_66_TrROS_Hall]", "high bracket"),
    ("SMGMTPEEYILELVREALAADPDAAVTIDHDDIVRNTPNPISKEEIEKLAKEKTGVEDLTVTETPPDVPPSA [r9_738_JUSTAS]", "middle bracket"),
    ("SAGGSAGGSAGGKWIMVDSPEDIKEFAEDQGYKIKVDNVHPFPGDKNHYMVWIEIEPPGSAGGSAGGSAGGS [r10_126_TrROS]", "high bracket"),
    ("SAGFKIKIEPIEVLPNGTVKYKAIIETEKEKYEVEAFYNPKTGLIYIYSPKTGSIMKINPKTGKIILIPSAG [r14_260_TrMRF]", "high bracket"),
    ("SAGGSAGGSAMVVEIKPEKLPNGKYKVTVTITDPSTGKTTTTPYIVDPNKFTEEDIKKKLSSAGGSAGGSAG [r3_127_JUSTAS]", "high bracket"),
]
